Target: human TRPV4 (Homo sapiens (Human))
Sequence (Q9HBA0 whole entry): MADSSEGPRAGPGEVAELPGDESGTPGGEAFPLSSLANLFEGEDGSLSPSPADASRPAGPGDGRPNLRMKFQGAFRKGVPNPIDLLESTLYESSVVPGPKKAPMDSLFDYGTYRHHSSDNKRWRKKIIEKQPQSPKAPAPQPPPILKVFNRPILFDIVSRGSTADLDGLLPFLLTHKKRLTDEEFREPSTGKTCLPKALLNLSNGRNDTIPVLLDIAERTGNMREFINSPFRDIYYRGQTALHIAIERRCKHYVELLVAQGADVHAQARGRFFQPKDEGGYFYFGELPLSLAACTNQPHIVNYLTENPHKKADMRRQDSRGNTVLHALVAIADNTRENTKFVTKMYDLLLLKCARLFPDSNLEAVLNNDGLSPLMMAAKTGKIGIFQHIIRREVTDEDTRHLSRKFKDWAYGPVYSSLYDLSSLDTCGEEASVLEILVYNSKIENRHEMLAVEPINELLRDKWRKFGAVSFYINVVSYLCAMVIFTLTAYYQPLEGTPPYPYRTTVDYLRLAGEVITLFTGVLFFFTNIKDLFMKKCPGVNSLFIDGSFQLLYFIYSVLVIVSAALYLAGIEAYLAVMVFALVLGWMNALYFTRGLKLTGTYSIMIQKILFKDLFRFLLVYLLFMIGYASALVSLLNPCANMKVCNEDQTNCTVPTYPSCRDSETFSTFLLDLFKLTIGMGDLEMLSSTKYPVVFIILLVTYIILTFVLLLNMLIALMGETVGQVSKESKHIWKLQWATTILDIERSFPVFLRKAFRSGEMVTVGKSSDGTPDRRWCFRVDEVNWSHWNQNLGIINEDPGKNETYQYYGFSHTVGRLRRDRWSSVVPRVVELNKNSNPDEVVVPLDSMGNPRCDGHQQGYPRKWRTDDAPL
Experiment: FLIPR assay for hTRPV4 expressed in BHK cells
Format: cell-based
Settings: inhibition of Agonist Compound-induced calcium signal (agonist at EC80), BHK/AC9 cells expressing human TRPV4; read-out: IC50
pIC50: −log10 of the molar value.
MEASURED QUANTITY: pIC50

What does the data say about its pIC50? Entry: N#Cc1ccc(C[C@H]2CN(S(=O)(=O)c3ccc(Cl)cc3Cl)C[C@@]2(O)CO)cc1F [Example 1]
8.00 to 10.00

What does the data say about its pIC50? Entry: N#Cc1ccc(C[C@H]2CN(S(=O)(=O)c3ccc(Cl)cc3Cl)C[C@]2(O)CO)cc1F [Example 4]
7.00 to 8.00

What does the data say about its pIC50? Entry: N#Cc1ccc(C[C@H]2CN(S(=O)(=O)c3ccc(Cl)cn3)C[C@@]2(O)CN)cc1F [Example 7]
8.00 to 10.00

What does the data say about its pIC50? Entry: N#Cc1ccc(C[C@H]2CN(S(=O)(=O)c3ccc(C(F)(F)F)cc3C#N)C[C@@]2(O)CO)cc1F [Example 5]
8.00 to 10.00

What does the data say about its pIC50? Entry: N#Cc1ccc(S(=O)(=O)N2C[C@H](Cc3ccc(C#N)c(F)c3)[C@](O)(CO)C2)c(Cl)c1 [Example 6]
8.00 to 10.00

What does the data say about its pIC50? Entry: N#Cc1ccc(C[C@H]2CN(S(=O)(=O)c3ccc(C(F)(F)F)cc3Cl)C[C@@]2(O)CO)cc1 [Example 2]
7.00 to 8.00

What does the data say about its pIC50? Entry: N#Cc1ccc(C[C@H]2CN(S(=O)(=O)c3ccc(Cl)cn3)C[C@@]2(O)CO)c(OCC(F)(F)F)c1 [Example 3]
7.00 to 8.00

Just for reference, patent US10590077B2 is where these values come from.
